These compounds were tested on SARS-CoV-2 3CLpro (Severe acute respiratory syndrome coronavirus 2); pIC50 is the recorded read-out.
pIC50: −log10 of the molar value.

Solved cases (3 shown):
[[record]]
compound = "CC(C)(C)[C@H](NC(=O)CC(F)(F)F)C(=O)N1CC2(C[C@H]1C(=O)N[C@H](C#N)C[C@@H]1CCNC1=O)SCCS2 [Compound 11]"
value_kind = "pIC50"
observed = "6.00 to 7.00"

[[record]]
compound = "CC(=O)N[C@H](C(=O)N1CC2(C[C@H]1C(=O)N[C@H](C#N)C[C@@H]1CCNC1=O)SCCS2)C(C)(C)C [Compound 3]"
value_kind = "pIC50"
observed = "> 7.00"

[[record]]
compound = "CC(C)(C)[C@H](NC(=O)C1CC1)C(=O)N1CC2(C[C@H]1C(=O)N[C@H](C#N)C[C@@H]1CCNC1=O)SCCS2 [Compound 4]"
value_kind = "pIC50"
observed = "> 7.00"


// for each compound below, give its pIC50
1. COC(=O)N[C@H](C(=O)N1CC2(C[C@H]1C(=O)N[C@H](C#N)C[C@@H]1CCNC1=O)SCCS2)C(C)(C)C [Compound 6]
2. Cc1cc(C)cc(C(=O)N[C@H](C(=O)N2CC3(C[C@H]2C(=O)N[C@H](C#N)C[C@@H]2CCNC2=O)SCCS3)C(C)(C)C)c1 [Compound 10]
3. CC(C)(C)[C@H](NC(=O)C(F)(F)F)C(=O)N1CC2(C[C@H]1C(=O)N[C@H](C#N)C[C@@H]1CCNC1=O)OCCO2 [Compound 18]

*A*
1. 6.00 to 7.00
2. 5.00 to 6.00
3. > 7.00
